The measured values listed here are drawn from patent US20230220008A1.

Measured Average Relative Fold Induction relative to CD137L, listed per entry for reference.
molecular target: CD137 on Jurkat reporter cells (Promega) (UniProt Q07011 24-255, limits assumed); test: cell-based or functional assay
Sequence (Q07011 24-255 limits assumed): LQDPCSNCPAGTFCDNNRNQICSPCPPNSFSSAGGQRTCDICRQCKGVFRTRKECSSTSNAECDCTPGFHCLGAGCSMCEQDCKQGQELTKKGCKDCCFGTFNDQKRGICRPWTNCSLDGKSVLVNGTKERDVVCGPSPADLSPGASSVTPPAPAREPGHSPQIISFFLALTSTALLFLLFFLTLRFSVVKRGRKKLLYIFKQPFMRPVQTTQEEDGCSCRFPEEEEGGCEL
Starred links: 1 amine or outer side, 2 acyl side, 3 side chain; linkers in the order of their positions; H or OH if unused. Positions of bridges follow the written chain, without caps; N, C: chain ends. Non-standard residues stand in square brackets, D forms with d. No end group written: not given here. BCN = bicyclo[6.1.0]non-4-yn-9-ylmethyl carbonate as carbamate, click handle; TATA = O=C(CC[*:1])N1CN(C(=O)CC[*:2])CN(C(=O)CC[*:3])C1; Nle = CCCC[C@H](N)C(=O)O
result type: Average Relative Fold Induction relative to CD137L (fold)

binder	numeric value
XACIEEGQYCFADPYXCA (not fully specified; (BCN)-A-CiIEEGQYCiiFADPY(Nle)Ciii-A; Cys on TATA scaffold) [BCY8149]	0.93
XACIEEGQYCFADPYXCA (not fully specified; (PYA)-A-CiIEEGQYCiiF[D-A]DPY[Nle]Ciii-A; Cys on TATA scaffold) [BCY8583]	3.14
Ac-ACIEEGK(BCN)YCFADPY[Nle]CA (linker 2-9-16 via TATA; not fully specified; also: trimer of three peptide units on central hinge B (TCA) via spacer S1A n=10) [BCY8151]	0.49
Ac-ACIEK(BCN)GQYCFADPY[Nle]CA (linker 2-9-16 via TATA; not fully specified; also: tetramer of four peptide units on central hinge A (TET) via spacer S1A n=10) [BCY8150]	0.77
